Cited source for all entries: patent US20200024330A1

- target_desc: HIV-1 JRFL envelope glycoprotein (Env) (HIV-1)
- protocol_notes: cell-based or functional assay
observed_property: IC50 neutralization

binder: PGT-126 (antibody, V domains shown) VH: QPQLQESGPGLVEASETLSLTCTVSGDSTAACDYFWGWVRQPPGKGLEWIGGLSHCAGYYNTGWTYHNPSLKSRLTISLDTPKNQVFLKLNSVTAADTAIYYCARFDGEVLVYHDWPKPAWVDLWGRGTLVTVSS VL: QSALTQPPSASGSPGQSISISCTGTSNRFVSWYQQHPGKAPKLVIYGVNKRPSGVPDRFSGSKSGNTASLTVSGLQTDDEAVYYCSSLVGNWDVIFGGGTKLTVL
observed_property: IC50 neutralization
result: 0.014 µg/mL

Looking up PGT-123 (antibody, V domains shown) VH: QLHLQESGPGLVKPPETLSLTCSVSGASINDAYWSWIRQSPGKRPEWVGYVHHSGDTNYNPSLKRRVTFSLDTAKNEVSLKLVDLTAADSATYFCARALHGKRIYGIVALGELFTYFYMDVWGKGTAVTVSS VL: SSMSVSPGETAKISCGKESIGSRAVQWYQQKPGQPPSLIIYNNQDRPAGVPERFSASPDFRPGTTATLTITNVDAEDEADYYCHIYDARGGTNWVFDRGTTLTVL , I see its IC50 neutralization listed as 0.0283 µg/mL

Looking up PGT-136 (antibody, V domains shown) VH: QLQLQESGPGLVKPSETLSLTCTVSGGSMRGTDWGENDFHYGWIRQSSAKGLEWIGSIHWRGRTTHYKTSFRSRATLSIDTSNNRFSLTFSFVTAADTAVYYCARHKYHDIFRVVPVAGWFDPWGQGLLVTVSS VL: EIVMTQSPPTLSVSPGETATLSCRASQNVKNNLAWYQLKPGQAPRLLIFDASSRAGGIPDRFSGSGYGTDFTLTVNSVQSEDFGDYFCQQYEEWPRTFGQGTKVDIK , I see its IC50 neutralization listed as > 10 µg/mL

Looking up PGT-130 (antibody, V domains shown) VH: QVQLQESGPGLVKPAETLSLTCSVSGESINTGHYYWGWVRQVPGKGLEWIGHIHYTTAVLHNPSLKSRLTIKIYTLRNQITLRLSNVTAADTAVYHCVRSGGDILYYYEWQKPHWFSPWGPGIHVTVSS VL: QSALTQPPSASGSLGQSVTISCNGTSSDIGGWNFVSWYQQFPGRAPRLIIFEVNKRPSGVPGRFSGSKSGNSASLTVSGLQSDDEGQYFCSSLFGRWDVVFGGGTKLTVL , I see its IC50 neutralization listed as 0.0346 µg/mL
